These measurements were taken from paper PMC5540273.

The following compounds are listed with their measured %Inh values.
test system: CSNK1A1L; settings: concentration: 1 μM, replicates: in singlicate; n = 1;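 further: KINOMEscan kinase panel screen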

COMPOUND	%Inh [%]
COc1ccc(S(=O)(=O)NC2CCN(c3cc(C)nc(Nc4cccc(C#N)c4)n3)CC2)cc1.O=C(O)C(F)(F)F [GSK1653539]	0
COc1ccc(Nc2nccc(N3CCC(NC(=O)Nc4cc(C)ccc4C)C3)n2)cc1 (stereo not shown) [GSK1379741]	2
NS(=O)(=O)CCc1cccc(Nc2nccc(-c3c(-c4cccc(NC(=O)c5c(F)cccc5F)c4)nn4ccccc34)n2)c1 [GSK336735]	7
Cl.Oc1cccc(Nc2ccnc3cc(-c4ccncc4)ccc23)c1 [GW494601]	42
O=C(NCCCN1CCOCC1)c1cccc(Nc2nccc(Nc3ccc(Oc4ccccc4)cc3)n2)c1 [GW663929]	0
CCCCCc1nc2c(N)ncnc2n1CCCCC [SKF-97255]	0
COC(=O)Nc1nc2cc(Oc3ccc(NC(=O)Nc4cc(F)ccc4F)cc3)ccc2[nH]1.Cl [GW701424]	13
